From: ChEMBL document CHEMBL3792319

tested on: Mycobacterium tuberculosis; test: Antitubercular activity against rifampicin-resistant Mycobacterium tuberculosis H37Rv isolate 1 by two-fold serial dilution method; format: functional
// MIC lookup, one value per entry
Value expressed in µM; do not type the unit.

Some compounds with recorded MIC:
[[record]]
compound = "CCC(C)[C@@H]1CN([C@@H](CNC)Cc2ccccc2)CCN1CCC12CC3CC(CC(C3)C1)C2 (some centres undefined)"
target_system = "Mycobacterium tuberculosis"
reported_metric = "MIC"
numeric_readout = 37

[[record]]
compound = "CNC[C@@H](Cc1ccccc1)N1CCN(CCC(c2ccccc2)c2ccccc2)CC1"
target_system = "Mycobacterium tuberculosis"
reported_metric = "MIC"
numeric_readout = 172

[[record]]
compound = "CNC[C@@H](Cc1ccccc1)N1CCN(CCC23CC4CC(CC(C4)C2)C3)[C@H](C(C)C)C1"
target_system = "Mycobacterium tuberculosis"
reported_metric = "MIC"
numeric_readout = 14


Note: attention shifts to another entry.
MIC reported for this compound "CNC[C@@H](Cc1ccccc1)N1CCN(CCC23CC4CC(CC(C4)C2)C3)CC1" : 39
